tested-on: Homeobox protein Hox-A13 (Mus musculus) (UniProt Q62424)
Sequence (Q62424 whole entry, looked up): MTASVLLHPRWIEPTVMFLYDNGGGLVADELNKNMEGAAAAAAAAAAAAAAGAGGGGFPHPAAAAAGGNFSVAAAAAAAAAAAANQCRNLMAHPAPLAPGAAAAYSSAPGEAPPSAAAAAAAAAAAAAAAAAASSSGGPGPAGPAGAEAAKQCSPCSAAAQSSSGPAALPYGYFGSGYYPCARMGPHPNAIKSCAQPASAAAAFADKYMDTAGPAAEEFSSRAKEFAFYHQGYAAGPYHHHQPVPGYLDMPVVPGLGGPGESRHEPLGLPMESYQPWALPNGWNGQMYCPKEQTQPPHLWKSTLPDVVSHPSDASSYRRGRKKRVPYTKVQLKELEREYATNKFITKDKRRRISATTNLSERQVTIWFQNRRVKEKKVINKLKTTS
procedure-details: inhibitors of HoxA13-DNA binding, primary screen, biochemical, fluorescence polarization, labeled oligonucleotide (AID 1185)
applied-conditions: 15 min, higher = more signal, called active from +8 up or from −8 down
Calls of active or inactive are those of the source.
Please respond with reported z-score for every item in the list.

Entry under test: COc1cc(COC(C)=O)ccc1OC(C)=O . Its z-score was 0.579 (inactive)

Entry under test: COc1cccc(-c2cccc(=O)o2)c1 . Its z-score was -2.09 (inactive)

Entry under test: O=C1[C@@]23C=C(Br)[C@H](C[C@@H]2CCOC3)[C@@]12CO2 . Its z-score was 0.0303 (inactive)

Entry under test: CN1C(=O)C2C=CC(C(O)c3ccc([N+](=O)[O-])cc3)N(N3CCCCC3)C2C1=O (configuration not stated) . Its z-score was -3.98 (inactive)

Entry under test: COc1cc2c(cc1OC)CN(C(=O)[C@@H]1[C@H]3C(=O)O[C@H](c4ccccc4)[C@H](c4ccccc4)N3[C@H](c3ccccc3OCCO)[C@@]13C(=O)Nc1ccc(C#CCCO)cc13)CC2 . Its z-score was 3.45 (inactive)

Entry under test: CCOC(=O)C[C@H]1[C@H](OC(=O)c2ccccc2-c2ccccc2)[C@@H](NC(=O)CC(C)C)c2cc(OCCCO)ccc2N1C(=O)Cc1ccc(OC)cc1 . Its z-score was -5.17 (inactive)

Entry under test: C=CCN1C(=O)[C@]2(O[C@H](CCn3cc([C@H](O)c4ccccc4)nn3)[C@@H]([Si](C)(C)c3ccc(OC)cc3)[C@@H]2C)c2ccccc21 . Its z-score was -5.68 (inactive)
